# System: Wolbachia pipientis
# test-name: Anti-Wolbachia Cell-Based Screen
# Format: functional
# Design: scale not given: in the data most compounds retested in dose-response had high values
# settings: 5 µM
Out of some 48,000 compounds screened, about 13,000 (27%) showed an effect of 50% or more. This is one part of the list.
Can you tell me Percent Effect for the items I'm about to list?
Please don't drop the unit; write it after the number.

Observe how each entry below is paired with its result.
>>> result("CCc1ccc(C(=O)N2C[C@@H]3COC[C@@H](C(=O)NC)[C@@H]3C2)cc1")
"-16.14%"
>>> result("CC(NCc1ccc(F)cc1)c1ccc(S(C)(=O)=O)cc1 (stereo not given)")
"8.945%"
>>> result("CC(C)c1cc(CN2CCC(N)CC2)no1")
"118.3%"
>>> result("N#Cc1cc(F)ccc1NCc1ccc(Cn2cncn2)cc1")
"1.669%"
>>> result("CNC(=O)COC1COC2(CCN(Cc3cccnc3)CC2)C1.O=C(O)C(F)(F)F (stereo not given)")
"120%"

Give Percent Effect for all compounds that follow.
1. Cc1cc2nc(C(C)C)cc(N[C@H](C(N)=O)C(C)C)n2n1
2. Cc1cccc(Oc2nccnc2C2CCN(C(=O)C(C)(C)N)CC2)c1

A.
1. -8.312%
2. 110.7%

Give Percent Effect for all compounds that follow.
1. O=C(O)C(F)(F)F.O=C(c1cccnc1)N1CCC2(CCN(C(=O)N3CCCC3)CC2)C1
2. Cn1ccc(CN2CCC(NC(=O)Cc3ccccc3)CC2)cc1=O
3. COc1ccc(CNC(Cn2cncn2)c2ccccc2)cc1C (stereo not given)

A.
["121.5%", "-4.576%", "-2.513%"]

These entries and their values trace back to ChEMBL document CHEMBL3988442.
